Assignment: determine reported EC50 for the given compounds.
Target: wild-type and mutant CD3 binding domains harbored within TROP2 TCE constructs
Experiment: ELISA binding of peptide masks to wild-type and mutated TROP2 TCEs
Conditions: read-out: TCE-14 (3086) (Y111A) EC50; captured biotinylated peptide or CD3-biotin; binding of TCE-14, anti-CD3 Y111A

>  <COMPOUND>
CC(C)C[C@@H]1NC(=O)[C@@H](NC(=O)[C@H](CCC(N)=O)NC(=O)[C@H](CO)NC(=O)CN)CSSC[C@@H](C(=O)N2CCC[C@H]2C(=O)N[C@@H](Cc2ccc(O)cc2)C(=O)O)NC(=O)[C@H](C(C)C)NC(=O)[C@H](CCC(=O)O)NC(=O)[C@H](Cc2c[nH]c3ccccc23)NC(=O)[C@H](CCC(=O)O)NC(=O)[C@@H]2CCCN2C(=O)CNC1=O [Peptide-2]

>  <QUANTITY NAME>
EC50

>  <RESULT VALUE>
49.1 nM

$$$$

Quick batch: EC50 for everything below.
1. CSCC[C@H](NC(=O)[C@@H]1CSSC[C@H](NC(=O)[C@H](Cc2ccc(O)cc2)NC(=O)[C@H](C)N)C(=O)NCC(=O)N2CCC[C@H]2C(=O)N[C@@H](CCC(=O)O)C(=O)N[C@@H](Cc2ccccc2)C(=O)N[C@@H](CC(=O)O)C(=O)N[C@@H](CCC(=O)O)C(=O)N[C@@H](CO)C(=O)N[C@@H](C(C)C)C(=O)NCC(=O)N1)C(=O)O [Peptide-8]
2. CSCC[C@H](NC(=O)[C@@H]1CSSC[C@H](NC(=O)[C@H](Cc2ccc(O)cc2)NC(=O)[C@@H](N)C(C)C)C(=O)NCC(=O)N2CCC[C@H]2C(=O)N[C@@H](CCC(=O)O)C(=O)N[C@@H](Cc2ccccc2)C(=O)N[C@@H](CC(=O)O)C(=O)N[C@@H](CCC(=O)O)C(=O)N[C@@H](CO)C(=O)N[C@@H](C(C)C)C(=O)NCC(=O)N1)C(=O)O [Peptide-3]

Reply:
["76.9 nM", "77.7 nM"]

----------
Molecular target: wild-type and mutant CD3 binding domains harbored within TROP2 TCE constructs
Test: ELISA binding of peptide masks to wild-type and mutated TROP2 TCEs
Conditions: read-out: TCE-3 (3075) (R100A) EC50; captured biotinylated peptide or CD3-biotin; binding of TCE-3, anti-CD3 R100A
QUANTITY NAME: EC50 (nM)
Answers are plain numbers, in nM.

>  <MOLECULE>
CC(C)C[C@@H]1NC(=O)[C@H](CC(=O)O)NC(=O)[C@H](C(C)C)NC(=O)[C@H](CC(C)C)NC(=O)[C@@H](NC(=O)[C@H](CCC(=O)O)NC(=O)[C@@H](N)CO)CSSC[C@@H](C(=O)N[C@@H](Cc2ccc(O)cc2)C(=O)N[C@@H](Cc2c[nH]c3ccccc23)C(=O)O)NC(=O)[C@@H]2CCCN2C(=O)[C@H](CC(=O)O)NC(=O)[C@H](CO)NC(=O)[C@H](CCC(N)=O)NC1=O [Peptide-5]

>  <UNIT TAG>
nM

>  <EC50>
8.73

$$$$

Moving on to another molecule below.
Query: State its EC50: CSCC[C@H](NC(=O)[C@@H]1CSSC[C@H](NC(=O)[C@H](Cc2ccc(O)cc2)NC(=O)[C@@H](N)C(C)C)C(=O)NCC(=O)N2CCC[C@H]2C(=O)N[C@@H](CCC(=O)O)C(=O)N[C@@H](Cc2ccccc2)C(=O)N[C@@H](CC(=O)O)C(=O)N[C@@H](CCC(=O)O)C(=O)N[C@@H](CO)C(=O)N[C@@H](C(C)C)C(=O)NCC(=O)N1)C(=O)O [Peptide-3]
Reply: 1.76

----------
Molecular target: wild-type and mutant CD3 binding domains harbored within TROP2 TCE constructs
Assay: ELISA binding of peptide masks to wild-type and mutated TROP2 TCEs
Settings: read-out: TCE-24 (3096) (W238A) EC50; captured biotinylated peptide or CD3-biotin; binding of TCE-24, anti-CD3 W238A
Assignment: determine reported log10 of EC50 for the given compounds.
Friendly reminder: values = log10 of EC50, unit nM.

>  <COMPOUND>
CC(C)C[C@@H]1NC(=O)[C@H](CC(=O)O)NC(=O)[C@H](C(C)C)NC(=O)[C@H](CC(C)C)NC(=O)[C@@H](NC(=O)[C@H](CCC(=O)O)NC(=O)[C@@H](N)CO)CSSC[C@@H](C(=O)N[C@@H](Cc2ccc(O)cc2)C(=O)N[C@@H](Cc2c[nH]c3ccccc23)C(=O)O)NC(=O)[C@@H]2CCCN2C(=O)[C@H](CC(=O)O)NC(=O)[C@H](CO)NC(=O)[C@H](CCC(N)=O)NC1=O [Peptide-5]

>  <RESULT VALUE>
-0.54

$$$$

Quick batch: log10 of EC50 for everything below.
1. CC(C)C[C@@H]1NC(=O)[C@@H](NC(=O)[C@H](CCC(N)=O)NC(=O)[C@H](CO)NC(=O)[C@H](C)N)CSSC[C@@H](C(=O)N2CCC[C@H]2C(=O)N[C@@H](Cc2ccc(O)cc2)C(=O)O)NC(=O)[C@H](C(C)C)NC(=O)[C@H](CCC(=O)O)NC(=O)[C@H](Cc2c[nH]c3ccccc23)NC(=O)[C@H](CCC(=O)O)NC(=O)[C@@H]2CCCN2C(=O)CNC1=O [Peptide-10]
2. CSCC[C@H](NC(=O)[C@@H]1CSSC[C@H](NC(=O)[C@H](Cc2ccc(O)cc2)NC(=O)[C@@H](N)C(C)C)C(=O)NCC(=O)N2CCC[C@H]2C(=O)N[C@@H](CCC(=O)O)C(=O)N[C@@H](Cc2ccccc2)C(=O)N[C@@H](CC(=O)O)C(=O)N[C@@H](CCC(=O)O)C(=O)N[C@@H](CO)C(=O)N[C@@H](C(C)C)C(=O)NCC(=O)N1)C(=O)O [Peptide-3]
3. CC(C)C[C@@H]1NC(=O)[C@@H](NC(=O)[C@H](C)NC(=O)[C@H](CO)NC(=O)CN)CSSC[C@@H](C(=O)N2CCC[C@H]2C(=O)N[C@@H](Cc2ccc(O)cc2)C(=O)O)NC(=O)[C@H](C(C)C)NC(=O)[C@H](CCC(=O)O)NC(=O)[C@H](Cc2c[nH]c3ccccc23)NC(=O)[C@H](CCC(=O)O)NC(=O)[C@@H]2CCCN2C(=O)CNC1=O [Peptide-11]

Reply:
1: 0.73; 2: 0.78; 3: 0.85

Quick batch: log10 of EC50 for everything below.
1. CC(C)C[C@@H]1NC(=O)[C@@H](NC(=O)[C@H](CCC(N)=O)NC(=O)[C@H](CO)NC(=O)CN)CSSC[C@@H](C(=O)N2CCC[C@H]2C(=O)N[C@@H](Cc2ccc(O)cc2)C(=O)O)NC(=O)[C@H](C(C)C)NC(=O)[C@H](CCC(=O)O)NC(=O)[C@H](Cc2c[nH]c3ccccc23)NC(=O)[C@H](CCC(=O)O)NC(=O)[C@@H]2CCCN2C(=O)CNC1=O [Peptide-2]
2. CSCC[C@H](NC(=O)[C@@H]1CSSC[C@H](NC(=O)[C@H](Cc2ccc(O)cc2)NC(=O)[C@H](C)N)C(=O)NCC(=O)N2CCC[C@H]2C(=O)N[C@@H](CCC(=O)O)C(=O)N[C@@H](Cc2ccccc2)C(=O)N[C@@H](CC(=O)O)C(=O)N[C@@H](CCC(=O)O)C(=O)N[C@@H](CO)C(=O)N[C@@H](C(C)C)C(=O)NCC(=O)N1)C(=O)O [Peptide-8]

Reply:
1: 0.80; 2: 0.75

----------
Target: wild-type and mutant CD3 binding domains harbored within TROP2 TCE constructs
Assay: ELISA binding of peptide masks to wild-type and mutated TROP2 TCEs
Conditions: read-out: TCE-26 (3098) (F240A) EC50; captured biotinylated peptide or CD3-biotin; binding of TCE-26, anti-CD3 F240A
Assignment: determine reported pEC50 for the given compounds.
One number for each entry, as −log10 of the molar value.

Examples with their reported pEC50 follow.
>  <COMPOUND>
CSCC[C@H](NC(=O)[C@@H]1CSSC[C@H](NC(=O)[C@H](Cc2ccc(O)cc2)NC(=O)[C@@H](N)C(C)C)C(=O)NCC(=O)N2CCC[C@H]2C(=O)N[C@@H](CCC(=O)O)C(=O)N[C@@H](Cc2ccccc2)C(=O)N[C@@H](CC(=O)O)C(=O)N[C@@H](CCC(=O)O)C(=O)N[C@@H](CO)C(=O)N[C@@H](C(C)C)C(=O)NCC(=O)N1)C(=O)O [Peptide-3]

>  <RESULT VALUE>
8.24

$$$$
>  <COMPOUND>
CC(C)C[C@@H]1NC(=O)[C@@H](NC(=O)[C@H](C)NC(=O)[C@H](CO)NC(=O)CN)CSSC[C@@H](C(=O)N2CCC[C@H]2C(=O)N[C@@H](Cc2ccc(O)cc2)C(=O)O)NC(=O)[C@H](C(C)C)NC(=O)[C@H](CCC(=O)O)NC(=O)[C@H](Cc2c[nH]c3ccccc23)NC(=O)[C@H](CCC(=O)O)NC(=O)[C@@H]2CCCN2C(=O)CNC1=O [Peptide-11]

>  <RESULT VALUE>
8.04

$$$$
>  <COMPOUND>
CC(C)C[C@@H]1NC(=O)[C@H](CC(=O)O)NC(=O)[C@H](C(C)C)NC(=O)[C@H](CC(C)C)NC(=O)[C@@H](NC(=O)[C@H](CCC(=O)O)NC(=O)[C@@H](N)CO)CSSC[C@@H](C(=O)N[C@@H](Cc2ccc(O)cc2)C(=O)N[C@@H](Cc2c[nH]c3ccccc23)C(=O)O)NC(=O)[C@@H]2CCCN2C(=O)[C@H](CC(=O)O)NC(=O)[C@H](CO)NC(=O)[C@H](CCC(N)=O)NC1=O [Peptide-5]

>  <RESULT VALUE>
9.12

$$$$
>  <COMPOUND>
CSCC[C@H](NC(=O)[C@@H]1CSSC[C@H](NC(=O)[C@H](Cc2ccc(O)cc2)NC(=O)[C@H](C)N)C(=O)NCC(=O)N2CCC[C@H]2C(=O)N[C@@H](CCC(=O)O)C(=O)N[C@@H](Cc2ccccc2)C(=O)N[C@@H](CC(=O)O)C(=O)N[C@@H](CCC(=O)O)C(=O)N[C@@H](CO)C(=O)N[C@@H](C(C)C)C(=O)NCC(=O)N1)C(=O)O [Peptide-8]

>  <RESULT VALUE>
8.24

$$$$
>  <COMPOUND>
CC(C)C[C@@H]1NC(=O)[C@@H](NC(=O)[C@H](CCC(N)=O)NC(=O)[C@H](CO)NC(=O)CN)CSSC[C@@H](C(=O)N2CCC[C@H]2C(=O)N[C@@H](Cc2ccc(O)cc2)C(=O)O)NC(=O)[C@H](C(C)C)NC(=O)[C@H](CCC(=O)O)NC(=O)[C@H](Cc2c[nH]c3ccccc23)NC(=O)[C@H](CCC(=O)O)NC(=O)[C@@H]2CCCN2C(=O)CNC1=O [Peptide-2]

>  <RESULT VALUE>
8.10

$$$$

Moving on to another compound below.
Query: State its pEC50: CC(C)C[C@@H]1NC(=O)[C@@H](NC(=O)[C@H](CCC(N)=O)NC(=O)[C@H](CO)NC(=O)[C@H](C)N)CSSC[C@@H](C(=O)N2CCC[C@H]2C(=O)N[C@@H](Cc2ccc(O)cc2)C(=O)O)NC(=O)[C@H](C(C)C)NC(=O)[C@H](CCC(=O)O)NC(=O)[C@H](Cc2c[nH]c3ccccc23)NC(=O)[C@H](CCC(=O)O)NC(=O)[C@@H]2CCCN2C(=O)CNC1=O [Peptide-10]
Reply: 8.23

The reported measurements were obtained from patent US20260049140A1.
